Tested on: dystrophin deficient cardiomyocytes
Assay: High-throughput hypotonic stress cell viability (intracellular ATP) screen
Conditions: 384-well; 18 hours compound incubation, then 30 minutes at 12.5% normal osmolarity; CELLTITER-GLO; vs average of DMSO control wells; tested at 10^-8 to 10^-5 M, concentration not given
Where a name gives a salt, the structure may show the parent alone.
// classify: if (Average of % viability < 200%) Met else Not met

Compound: C=CC1=C(C(=O)O)N2C(=O)[C@@H](NC(=O)/C(=N\O)c3csc(N)n3)[C@H]2SC1
Measured target: dystrophin deficient cardiomyocytes
Label value: Met
//
Compound: CCCN(CCC)C(=O)C(CCC(=O)O)NC(=O)c1ccccc1 (centres unmarked) [PROGLUMIDE]
Measured target: dystrophin deficient cardiomyocytes
Label value: Met

Query: In plain terms, does Nc1nc2c(ncn2COCCO)c(=O)[nH]1 come in under 200% for Average of % viability?
Response: Not met

Query: In plain terms, does CO[C@H]1C[C@H](O[C@@H]2/C(C)=C/C[C@@H]3C[C@@H](C[C@]4(CC[C@H](C)[C@@H](C5CCCCC5)O4)O3)OC(=O)[C@@H]3C=C(C)/C(=N/O)[C@H]4OC/C(=C\C=C\[C@@H]2C)[C@]43O)O[C@@H](C)[C@@H]1O come in under 200% for Average of % viability?
Response: Met

Query: In plain terms, does CC=CC(=O)N(CC)c1ccccc1C come in under 200% for Average of % viability?
Response: Met

Query: In plain terms, does C[C@]12CC[C@@H]3c4ccc(OS(=O)(=O)O)cc4CC[C@H]3[C@@H]1CCC2=O [ESTROPIPATE] come in under 200% for Average of % viability?
Response: Not met

Query: In plain terms, does CCCCCCCCCCCCCCCC(=O)OC/C=C(C)/C=C/C=C(C)/C=C/C1=C(C)CCCC1(C)C [RETINYL PALMITATE] come in under 200% for Average of % viability?
Response: Not met

Query: In plain terms, does O=C(O)c1cc(-c2ccccc2)nc2ccccc12 come in under 200% for Average of % viability?
Response: Met

Query: In plain terms, does CC(C)COCC(CN(Cc1ccccc1)c1ccccc1)N1CCCC1 (centres unmarked) [BEPRIDIL HYDROCHLORIDE] come in under 200% for Average of % viability?
Response: Met

Query: In plain terms, does COc1ccc2cc([C@H](C)CO)ccc2c1 come in under 200% for Average of % viability?
Response: Met

Query: In plain terms, does CN(C)/N=N/c1[nH]cnc1C(N)=O come in under 200% for Average of % viability?
Response: Met

Query: In plain terms, does CN(C)c1nc(N(C)C)nc(N(C)C)n1 come in under 200% for Average of % viability?
Response: Met

Query: In plain terms, does O=C(O)CCCC[C@@H]1SC[C@@H]2NC(=O)N[C@@H]21 come in under 200% for Average of % viability?
Response: Not met

Query: In plain terms, does CCN(CC)CCOc1ccc2c(c1)C(=O)c1cc(OCCN(CC)CC)ccc1-2 come in under 200% for Average of % viability?
Response: Met

Query: In plain terms, does COc1ccc(C[C@H](N)C(=O)N[C@H]2[C@@H](O)[C@H](n3cnc4c(N(C)C)ncnc43)O[C@@H]2CO)cc1 [PUROMYCIN HYDROCHLORIDE] come in under 200% for Average of % viability?
Response: Met

Query: In plain terms, does NC(=O)c1ccc([N+](=O)[O-])cc1Cl [AKLOMIDE] come in under 200% for Average of % viability?
Response: Not met

Query: In plain terms, does CCOC(=O)C1=C(C)NC(C)=C(C(=O)OC)C1c1cccc([N+](=O)[O-])c1 (centres unmarked) come in under 200% for Average of % viability?
Response: Not met

Query: In plain terms, does CC(C)(C)c1ccc(C(O)CCCN2CCC(C(O)(c3ccccc3)c3ccccc3)CC2)cc1 (centres unmarked) come in under 200% for Average of % viability?
Response: Not met

Query: In plain terms, does CN1CCN(C(c2ccccc2)c2ccc(Cl)cc2)CC1 (centres unmarked) [CHLORCYCLIZINE HYDROCHLORIDE] come in under 200% for Average of % viability?
Response: Not met

====

Test system: dystrophin deficient cardiomyocytes
Assay: High-throughput hypotonic stress cell viability (intracellular ATP) screen
Settings: 384-well; 18 hours compound incubation, then 30 minutes at 12.5% normal osmolarity; CELLTITER-GLO; vs average of DMSO control wells; tested at 10^-8 to 10^-5 M, concentration not given
Structures can show the parent of a compound that is named as a salt.
Measurement name: Average of % viability

Example cases with answers are listed next.
Molecule: O=C(CCCN1CCC(O)(c2ccc(Cl)cc2)CC1)c1ccc(F)cc1
Measured target: dystrophin deficient cardiomyocytes
Average of % viability: 197.30 ± 19.03%
//
Molecule: COc1ncnc(NS(=O)(=O)c2ccc(N)cc2)c1OC
Measured target: dystrophin deficient cardiomyocytes
Average of % viability: 195.32 ± 23.52%
//
Molecule: CC(=O)OCC(=O)[C@@]1(O)CC[C@H]2[C@@H]3CCC4=CC(=O)CC[C@]4(C)[C@H]3C(=O)C[C@@]21C [CORTISONE ACETATE]
Measured target: dystrophin deficient cardiomyocytes
Average of % viability: 205.92 ± 12.32%

Next up:
Query: Assign Average of % viability to the following record: COC(=O)[C@H](c1ccccc1Cl)N1CCc2sccc2C1 [CLOPIDOGREL SULFATE]
Response: 194.84 ± 50.3%
